Tested on: Pt#1 patient cells
TEST: MTS conversion assay, patient melanoma cell proliferation
Assay type: cell-based
TEST_CONDITIONS: Homo sapiens; Patient cells Pt#1; MET; BRAF*; resistance none; 48 h MTS; read-out: b-AP15 IC50
READOUT_KIND: pIC50
Worth noting: pIC50 values are minus log10 of concentrations stated in mol/L.

Tell me its pIC50 given Cc1cc(C(=O)CN2CCCC2)c(C)n1-c1ccc(F)cc1 [b-AP15] as the entry.
5.47
